- Test system: SARS-CoV-2
- assay details: Inhibition of Vero E6 cell death induced by SARS-CoV-2, simultaneous addition of drug and virus
- condition details: Severe acute respiratory syndrome coronavirus 2, Vero C1008, simultaneous addition of the drug and virus
pIC50: −log10 of the molar value.

smi	pIC50
CCC(CC)COC(=O)[C@H](C)N[P@](=O)(OC[C@H]1O[C@@](C#N)(c2ccc3c(N)ncnn23)[C@H](O)[C@@H]1O)Oc1ccccc1	5.95
